Assay: Biodistribution of technetium-labelled peptides
Format: in vivo, CD1 mice
Details: CD1, stomach, iv, 80 ug/mouse, total radioactivity; 80 μg/mouse; 2 min; read-out: injected activity in Stomach
measurement.type: tissue uptake at 2 min

Q) Entry CSCC[C@H](NC(=O)[C@H](Cc1ccccc1)NC(=O)[C@H](CC(C)C)NC(=O)[C@H](CCCCN)NC(=O)CCCN(CCN)CCn1nc(C)c(CC(=O)O)c1C)C(=O)N[C@@H](C)C(=O)N[C@@H](CC(C)C)C(=O)N[C@H](C(=O)N[C@@H](C)C(=O)N[C@@H](Cc1ccccc1)C(=O)N[C@@H](CC(C)C)C(=O)N[C@@H](CCCNC(=N)N)C(=O)N[C@@H](Cc1ccccc1)C(=O)N[C@@H](CC(C)C)C(=O)N[C@H](C(=O)O)[C@@H](C)O)C(C)C [^99mTc(CO)3-Pz^1-pepH2, metal not drawn] : reported tissue uptake at 2 min = ?
A) 2 %ID/g

---

Tested on: bEnd3 cells
Test: Uptake test: cellular interaction (acid wash) and internalization (lysate)
Type: cell-based
Conditions: GaCl3; 24 hours
measurement.type: Cellular interaction (%)
Give bare numbers, in %.

>  <substance>
KLFMALVAFLRFLT [PepH2]

>  <measurement.units>
%

>  <Cellular interaction>
1.16

$$$$
>  <substance>
LVAFLRFLTIPPTAGILKRW [PepM′]

>  <measurement.units>
%

>  <Cellular interaction>
2.23

$$$$
>  <substance>
VQQLTKRFSL (Dengue virus 2; /note=“#PepH1”)

>  <measurement.units>
%

>  <Cellular interaction>
0.62

$$$$

Quick batch: Cellular interaction for everything below.
1. AGILKRW (Dengue virus 2; /note=“#PepH3 (PEP+)”)
2. KSKAINVLRGFRKEIGRMLNILN [PepH4]

A)
[0.60, 3.82]

---

Answer each item with its documented tissue uptake at 5 min.
Assay: Biodistribution of technetium-labelled peptides
Assay type: in vivo, CD1 mice
Settings: mouse, spleen, 10 ug, total radioactivity; CD1 mice, iv; 5 min; 10 μg; read-out: injected activity in Spleen
Residues, ends and D or L forms follow the SMILES beside them. *: point of attachment. X1 = Cc1nn(CCN(CCN)CCCC(=O)*)c(C)c1CC(=O)O
// unit must come after the numeric part

>  <compound>
Cc1nn(CCN(CCN)CCCC(=O)N[C@H](C(=O)N[C@@H](CCC(N)=O)C(=O)N[C@@H](CCC(N)=O)C(=O)N[C@@H](CC(C)C)C(=O)N[C@H](C(=O)N[C@@H](CCCCN)C(=O)N[C@@H](CCCNC(=N)N)C(=O)N[C@@H](Cc2ccccc2)C(=O)N[C@@H](CO)C(=O)N[C@@H](CC(C)C)C(=O)O)[C@@H](C)O)C(C)C)c(C)c1CC(=O)O [^99mTc(CO)3-Pz^1-pepH1, metal not drawn] (X1-VQQLTKRFSL-OH; C-terminus assumed)

>  <tissue uptake at 5 min>
0.7 %ID/g

$$$$

Turning to the following compound.
Q) Entry CC[C@H](C)[C@H](NC(=O)CNC(=O)[C@H](C)NC(=O)CCCN(CCN)CCn1nc(C)c(CC(=O)O)c1C)C(=O)N[C@@H](CC(C)C)C(=O)N[C@@H](CCCCN)C(=O)N[C@@H](CCCNC(=N)N)C(=O)N[C@@H](Cc1c[nH]c2ccccc12)C(=O)O [^99mTc(CO)3-Pz^1-pepH3, metal not drawn] (X1-AGILKRW-OH; C-terminus assumed) : reported tissue uptake at 5 min = ?
A) 1.5 %ID/g

---

Tested on: in vitro model of the BBB (bEnd3 cells)
Experiment: Transmigration of radiolabelled peptides across in vitro BBB model
Assay type: in vitro ADME
Settings: 99mTc; 5 hours
measurement.type: BBB transmigration (%)
One number for each entry, in %.

>  <substance>
AGILKRW (Dengue virus 2; /note=“#PepH3 (PEP+)”)

>  <measurement.units>
%

>  <BBB transmigration>
9.16

$$$$

Quick batch: BBB transmigration for everything below.
1. VQQLTKRFSL (Dengue virus 2; /note=“#PepH1”)
2. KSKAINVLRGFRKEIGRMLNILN [PepH4]

A)
1: 24.3; 2: 30.08

Q) Entry KLFMALVAFLRFLT [PepH2] : reported BBB transmigration = ?
A) 5.21

---

Assay: Biodistribution of technetium-labelled peptides
Format: in vivo, CD1 mice
Conditions: CD1, blood, iv, 80 ug/mouse, total radioactivity; 80 μg/mouse; 2 min; read-out: injected activity in Blood
Method: To evaluate the capacity to cross the BBB in vivo, the selected peptides, pepH1 and pepH3, were analyzed for biodistribution in CD1 mice. The peptides were labelled with technetium at a final concentration of 8.5×10^−5 M and diluted in PBS. CD1 mice were injected (iv injection, tail vein). […] The tissues of interest were dissected and washed to remove excess blood, weighed, and measured for radioactivity. Technetium radioactivity of the different peptides was measured for different organs. […]
measurement.type: tissue uptake at 2 min (%ID/g)
Give bare numbers, in %ID/g.

Q) Entry CSCC[C@H](NC(=O)[C@H](Cc1ccccc1)NC(=O)[C@H](CC(C)C)NC(=O)[C@H](CCCCN)NC(=O)CCCN(CCN)CCn1nc(C)c(CC(=O)O)c1C)C(=O)N[C@@H](C)C(=O)N[C@@H](CC(C)C)C(=O)N[C@H](C(=O)N[C@@H](C)C(=O)N[C@@H](Cc1ccccc1)C(=O)N[C@@H](CC(C)C)C(=O)N[C@@H](CCCNC(=N)N)C(=O)N[C@@H](Cc1ccccc1)C(=O)N[C@@H](CC(C)C)C(=O)N[C@H](C(=O)O)[C@@H](C)O)C(C)C [^99mTc(CO)3-Pz^1-pepH2, metal not drawn] : reported tissue uptake at 2 min = ?
A) 8.9

---

Test: Features of peptides: isoelectric point, charge
Assay type: physicochemical
Details: original peptide
measurement.type: Charge (number of positive residues)
Numbers only.

Study these solved cases before continuing.
>  <substance>
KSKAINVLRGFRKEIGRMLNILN [PepH4]

>  <Charge (number of positive residues)>
6

$$$$
>  <substance>
KLFMALVAFLRFLT [PepH2]

>  <Charge (number of positive residues)>
2

$$$$
>  <substance>
AGILKRW (Dengue virus 2; /note=“#PepH3 (PEP+)”)

>  <Charge (number of positive residues)>
2

$$$$
>  <substance>
VQQLTKRFSL (Dengue virus 2; /note=“#PepH1”)

>  <Charge (number of positive residues)>
2

$$$$

Turning to the following substance.
Q) Entry LVAFLRFLTIPPTAGILKRW [PepM′] : reported Charge (number of positive residues) = ?
A) 3

---

Experiment: Biodistribution of technetium-labelled peptides
Type: in vivo, CD1 mice
Conditions: CD1, in vivo, iv, 140 ug/mouse, total radioactivity; 140 μg/mouse; 1 hour; read-out: Excretion
Residues, ends and D or L forms follow the SMILES beside them. *: point of attachment. X1 = Cc1nn(CCN(CCN)CCCC(=O)*)c(C)c1CC(=O)O
measurement.type: dose excreted at 1 h (%)
Numbers only, in %.

>  <compound>
CC[C@H](C)[C@H](NC(=O)CNC(=O)[C@H](C)NC(=O)CCCN(CCN)CCn1nc(C)c(CC(=O)O)c1C)C(=O)N[C@@H](CC(C)C)C(=O)N[C@@H](CCCCN)C(=O)N[C@@H](CCCNC(=N)N)C(=O)N[C@@H](Cc1c[nH]c2ccccc12)C(=O)O [^99mTc(CO)3-Pz^1-pepH3, metal not drawn] (X1-AGILKRW-OH; C-terminus assumed)

>  <measurement.type>
dose excreted at 1 h

>  <measurement.units>
%

>  <result.number>
36

$$$$

Q) Entry Cc1nn(CCN(CCN)CCCC(=O)N[C@H](C(=O)N[C@@H](CCC(N)=O)C(=O)N[C@@H](CCC(N)=O)C(=O)N[C@@H](CC(C)C)C(=O)N[C@H](C(=O)N[C@@H](CCCCN)C(=O)N[C@@H](CCCNC(=N)N)C(=O)N[C@@H](Cc2ccccc2)C(=O)N[C@@H](CO)C(=O)N[C@@H](CC(C)C)C(=O)O)[C@@H](C)O)C(C)C)c(C)c1CC(=O)O [^99mTc(CO)3-Pz^1-pepH1, metal not drawn] (X1-VQQLTKRFSL-OH; C-terminus assumed) : reported dose excreted at 1 h = ?
A) 32.7

---

Assay: Biodistribution of technetium-labelled peptides
Assay type: in vivo, CD1 mice
Details: CD1, lung, iv, 80 ug/mouse, total radioactivity; 80 μg/mouse; 2 min; read-out: injected activity in Lung
measurement.type: tissue uptake at 2 min (%ID/g)
Give bare numbers, in %ID/g.

Q) Entry CSCC[C@H](NC(=O)[C@H](Cc1ccccc1)NC(=O)[C@H](CC(C)C)NC(=O)[C@H](CCCCN)NC(=O)CCCN(CCN)CCn1nc(C)c(CC(=O)O)c1C)C(=O)N[C@@H](C)C(=O)N[C@@H](CC(C)C)C(=O)N[C@H](C(=O)N[C@@H](C)C(=O)N[C@@H](Cc1ccccc1)C(=O)N[C@@H](CC(C)C)C(=O)N[C@@H](CCCNC(=N)N)C(=O)N[C@@H](Cc1ccccc1)C(=O)N[C@@H](CC(C)C)C(=O)N[C@H](C(=O)O)[C@@H](C)O)C(C)C [^99mTc(CO)3-Pz^1-pepH2, metal not drawn] : reported tissue uptake at 2 min = ?
A) 126

The values you see were collected from patent US10654917B2.
